Provide the reported Total Cell Count of each item.
Tested on: HEK-293T
Test Details: Multiplex assay against HEK293T
Format: toxicity, cell-based
Condition Notes: human, 24 h, 1 µM, compound concentration 1 uM, replicate 2
// response body must contain only the number

Given item COc1c(C)cc(NC(=O)c2nn(Cc3ccc(F)cc3)c3c2CN(C(=O)c2ccc[nH]2)C[C@]3(C)C(N)=O)cc1C , the value recorded as its Total Cell Count is 422

// sample Oc1c(CN2CCN(c3ccccn3)CC2)cc(Cl)c2cccnc12 , its Total Cell Count was 427

Entry CCCN1CCC[C@@H]2Cc3n[nH]cc3C[C@H]21.Cl [QUINPIROLE HYDROCHLORIDE] , Total Cell Count reported as 390

According to the records, this compound COc1ccc2c(c1)C(C(=O)N(Cc1ccc(N(C)C)cc1)c1ccc(C(C)C)cc1)CCC2.Cl (centres undefined) displays Total Cell Count of 399

The reported numbers originate from ChEMBL document CHEMBL5058577.
